Assay: Oral bioavailability in Balb/c mouse at 10 mg/kg daily
Conditions: in vivo
quantity-measured: bioavailability (%)

[[record]]
molecular_string = "Cc1cc(OCc2nc(-c3cnc(OC(C)C)nc3)c(-c3ccc(OC(F)(F)F)cc3)s2)ccc1OCC(=O)O"
measured_result = 88

[[record]]
molecular_string = "Cc1cc(OCc2nc(-c3ccc(OC(C)C)cc3)c(-c3ccc(OC(F)(F)F)cc3)s2)ccc1OCC(=O)O"
measured_result = 88

[[record]]
molecular_string = "Cc1cc(OCc2nc(-c3ccc(OC(C)C)cc3)c(-c3ccc(C(F)(F)F)cc3)s2)ccc1OCC(=O)O"
measured_result = 70

[[record]]
molecular_string = "Cc1cc(OCc2nc(-c3ccc(OC(C)C)nc3)c(-c3ccc(OC(F)(F)F)cc3)s2)ccc1OCC(=O)O"
measured_result = 72

[[record]]
molecular_string = "Cc1cc(OCc2nc(-c3ccc(N4CCOCC4)nc3)c(-c3ccc(OC(F)(F)F)cc3)o2)ccc1OCC(=O)O"
measured_result = 18

[[record]]
molecular_string = "Cc1cc(OCc2nc(-c3ccc(N4CCOCC4)cc3)c(-c3ccc(-c4ccccc4)cc3)s2)ccc1OCC(=O)O"
measured_result = 30

[[record]]
molecular_string = "CCCc1ccc(-c2oc(COc3ccc(OCC(=O)O)c(C)c3)nc2-c2cnc(OC)nc2)cc1"
measured_result = 41

[[record]]
molecular_string = "Cc1cc(OCc2nc(-c3ccc(OC(C)C)nc3)c(-c3ccc(OC(F)(F)F)cc3)o2)ccc1OCC(=O)O"
measured_result = 144

[[record]]
molecular_string = "Cc1cc(OCc2nc(-c3ccc(OC(C)C)cc3)c(-c3ccc(OC(F)(F)F)cc3)o2)ccc1OCC(=O)O"
measured_result = 129

[[record]]
molecular_string = "Cc1cc(OCc2nc(-c3ccc(OC4CCCC4)cc3)c(-c3ccc(OC(F)(F)F)cc3)o2)ccc1OCC(=O)O"
measured_result = 35

[[record]]
molecular_string = "Cc1cc(OCc2nc(-c3ccc(OC(C)C)cc3)c(-c3cccc(OC(F)(F)F)c3)s2)ccc1OCC(=O)O"
measured_result = 49

[[record]]
molecular_string = "COc1ccc(-c2nc(COc3ccc(OCC(=O)O)c(C)c3)oc2-c2ccc(OC(F)(F)F)cc2)cn1"
measured_result = 89

[[record]]
molecular_string = "COc1ccc(-c2nc(COc3ccc(OCC(=O)O)c(C)c3)sc2-c2ccc(OC(F)(F)F)cc2)cn1"
measured_result = 140

[[record]]
molecular_string = "Cc1cc(OCc2nc(-c3ccc(OC4CCCC4)cc3)c(-c3ccc(OC(F)(F)F)cc3)s2)ccc1OCC(=O)O"
measured_result = 19

[[record]]
molecular_string = "Cc1cc(OCc2nc(-c3cccnc3)c(-c3ccc(-c4ccccc4)cc3)o2)ccc1OCC(=O)O"
measured_result = 10


# credit: ChEMBL document CHEMBL1153748
